These entries and their values trace back to PubChem BioAssay AID1259423.

- Tested on: Aedes aegypti neuropeptide Y-like receptor 7 (NPYLR7)
- experiment.notes: agonists of mosquito NPYLR7 receptor, primary screen, cell-based, Aedes aegypti, calcium fluorescence, mosquito biting behavior (AID 1259423);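 further: 0% = vehicle and 100% = reference agonist at the receptor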
- condition.notes: HEK293T NPYLR7/Galpha15, GCaMP6s calcium fluorescence; measured here: Max-Min RFU normalised activation; at 10 µM; stronger effect = higher value
The campaign covered roughly 270,000 compounds. About 410 (0.15%) were called active. The full list was thinned out, with actives kept by preference.
Measured activation values are reported for all entries that follow.
reported.endpoint: activation (%)

| molecule | target.or.test.system | reported.endpoint | measurement.unit | measured.number |
| --- | --- | --- | --- | --- |
| CC1CNC(=O)CCN1Cc1ccc2cccc(Cl)c2n1 (stereo unspecified) | Aedes aegypti neuropeptide Y-like receptor 7 (NPYLR7) | activation | % | 6.16 |
| CN(Cc1ccccc1)C1(C(=O)NCC2COCCO2)Cc2ccccc2C1 (stereo unspecified) | Aedes aegypti neuropeptide Y-like receptor 7 (NPYLR7) | activation | % | -0.863 |
| CN(Cc1cc(-c2ccncc2)no1)Cc1cn[nH]c1-c1cccc(F)c1 | Aedes aegypti neuropeptide Y-like receptor 7 (NPYLR7) | activation | % | 4.35 |
| COc1ccc(C2SCCN2C(=O)c2cc3cc(Br)ccc3oc2=O)cc1 (stereo unspecified) | Aedes aegypti neuropeptide Y-like receptor 7 (NPYLR7) | activation | % | -4.59 |
| O=S(=O)(Nc1ccccc1OC(F)F)c1ccccc1F | Aedes aegypti neuropeptide Y-like receptor 7 (NPYLR7) | activation | % | -2.18 |
| Cc1c(NC(=O)C(C)(C)c2ccccc2)cccc1C(=O)N1CCOCC1 | Aedes aegypti neuropeptide Y-like receptor 7 (NPYLR7) | activation | % | 1.78 |
| Cc1c(CN2CCn3cncc3C2)c(=O)n(-c2ccccc2)n1C | Aedes aegypti neuropeptide Y-like receptor 7 (NPYLR7) | activation | % | 15.6 |
| CC1CCN(C(=O)C(C)Nc2ccc3c(c2)OCO3)CC1 (stereo unspecified) | Aedes aegypti neuropeptide Y-like receptor 7 (NPYLR7) | activation | % | 1.09 |
| CC(C)c1ccc(C(=O)NCc2ccccc2CS(=O)(=O)N2CCOCC2)cc1 | Aedes aegypti neuropeptide Y-like receptor 7 (NPYLR7) | activation | % | -3.21 |
| Cc1cc(S(=O)(=O)C(CNC(=O)CC(C)(C)C)c2cccs2)ccc1F (stereo unspecified) | Aedes aegypti neuropeptide Y-like receptor 7 (NPYLR7) | activation | % | 2.88 |
| COc1ccccc1-c1cc(C(=O)N2CCCC2)n2nc(C(C)(C)C)cc2n1 | Aedes aegypti neuropeptide Y-like receptor 7 (NPYLR7) | activation | % | 10.6 |
